molecular target: SIK2 (Homo sapiens); experiment: SIK2 Enzymatic Assay High Version 2 (High ATP); type: biochemical; details: enzyme 6 nM, 6 mM ATP and 400 μM HDAC5tide (each 2× final concentration); 30 minutes pre-incubation, 2 hours; ADP-Glo Max luminescence; read-out: SIK2 high ATP IC50 (μM) (Test Example 2)
Rule: IC50 below 0.02 µM gives yes. Equal to or above 0.02 µM gives no.

# count of solved cases: 3
Cc1cc(-c2ccn3nc(Nc4cc(C)nc(C)n4)cc3c2)c(OC[C@H]2CCC3(CCCC3)O2)cn1 (single isomer, unassigned) [Example 231]: yes
Cc1cc(-c2ccn3nc(NC(=O)[C@@H]4C[C@H]4C)cc3c2)c(OC[C@]23C[C@H](CO2)N(C)C3)cn1 [Example 250]: no
Cc1cc(-c2ccn3nc(Nc4cc(F)c(C(=O)NC5CC5)c(F)c4)cc3c2)c(O[C@H]2CC[C@H](O)CC2)cn1 [Example 614]: no

## Input Bench note: check whether Cc1cc(-c2ccn3nc(Nc4cc(C)nc(C)n4)cc3c2)c(OC[C@H]2COC3(CCCC3)O2)cn1 (single isomer, unassigned) [Example 544] shows IC50 below 0.02 µM
## Output yes

## Input Strictly below 0.02 µM in IC50? Cc1cc(-c2ccn3nc(Nc4cc(C)nc(C)n4)cc3c2)c(OCC(C)(O)C(F)(F)F)cn1 (single isomer, unassigned) [Example 263]
## Output yes

## Input Given the entry Cc1cc(-c2cn3cc(NC(=O)C4CC4)nc3cn2)c(OC2CN(C)C2)cn1 [Example 654] , would its reported IC50 be below 0.02 µM?
## Output no

###

target: SIK2 (Homo sapiens, UniProt Q9H0K1); experiment: SIK2 Enzymatic Assay High Version 2 (High ATP); assay type: biochemical
Sequence (Q9H0K1 whole entry, species assumed): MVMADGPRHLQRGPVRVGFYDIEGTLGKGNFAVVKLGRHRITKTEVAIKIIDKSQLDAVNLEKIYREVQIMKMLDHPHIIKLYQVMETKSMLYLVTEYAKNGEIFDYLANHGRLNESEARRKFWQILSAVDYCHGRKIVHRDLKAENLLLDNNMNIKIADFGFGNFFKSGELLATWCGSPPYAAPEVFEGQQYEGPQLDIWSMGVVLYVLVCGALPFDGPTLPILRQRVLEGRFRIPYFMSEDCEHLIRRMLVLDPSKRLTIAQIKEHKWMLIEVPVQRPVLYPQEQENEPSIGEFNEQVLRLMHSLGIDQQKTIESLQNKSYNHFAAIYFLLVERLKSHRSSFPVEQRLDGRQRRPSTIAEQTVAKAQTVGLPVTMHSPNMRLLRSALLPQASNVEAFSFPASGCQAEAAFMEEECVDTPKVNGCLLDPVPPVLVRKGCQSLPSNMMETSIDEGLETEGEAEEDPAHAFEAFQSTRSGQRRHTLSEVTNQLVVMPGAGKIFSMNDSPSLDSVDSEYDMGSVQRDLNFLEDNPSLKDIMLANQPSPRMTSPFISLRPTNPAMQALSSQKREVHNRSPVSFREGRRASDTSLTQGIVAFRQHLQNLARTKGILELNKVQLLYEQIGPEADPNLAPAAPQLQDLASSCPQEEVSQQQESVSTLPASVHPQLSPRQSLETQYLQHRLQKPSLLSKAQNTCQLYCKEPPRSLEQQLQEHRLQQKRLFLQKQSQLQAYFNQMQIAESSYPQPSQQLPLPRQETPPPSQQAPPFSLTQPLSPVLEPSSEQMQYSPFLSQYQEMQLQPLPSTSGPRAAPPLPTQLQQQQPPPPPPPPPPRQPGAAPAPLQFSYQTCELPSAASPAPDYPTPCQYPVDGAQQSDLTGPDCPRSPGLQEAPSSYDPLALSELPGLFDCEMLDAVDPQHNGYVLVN
pIC50: −log10 of the molar value.
Assign class by pIC50: not lower than 7 means fulfilled; lower than 7 means not fulfilled.

Example entries begin here.
Cc1cc(-c2ccn3nc(Nc4cnn(C)c4)cc3c2)c(O[C@H]2C[C@H]3COC[C@@H](C2)N3C)cn1 [Example 124]: fulfilled
Cc1cc(-c2ccn3nc(Nc4nccc(C)c4F)cc3c2)c(O[C@H]2C[C@H]3COC[C@@H](C2)N3)cn1 [Example 338]: fulfilled
Cc1cc(-c2cn3cc(Nc4cnn(C)c4)nc3cn2)c(O[C@H]2C[C@H]3COC[C@@H](C2)N3)cn1 [Example 322]: fulfilled
N#Cc1cc(-c2ccn3nc(NC(=O)C4CC4)cc3c2)c(OC2CC2)cn1 [Example 46]: not fulfilled
Cc1cc(-c2ccn3nc(Nc4cnn(C(F)F)c4)cc3c2)c(O[C@H]2C[C@H]3COC[C@@H](C2)N3C)cn1 [Example 116]: fulfilled

## Input Reported pIC50 at or above 7? CCCNC(=O)c1ccc(Nc2cc3cc(-c4cc(C)ncc4O[C@H]4C[C@H]5COC[C@@H](C4)N5)ccn3n2)nc1 [Example 377]
## Output fulfilled

## Input Given CCN1[C@@H]2COC[C@H]1C[C@@H](Oc1cnc(C)cc1-c1ccn3nc(Nc4ccc(C(=O)NC)cn4)cc3c1)C2 [Example 530] , state whether its pIC50 is at least 7.
## Output fulfilled

## Input pIC50 >= 7 for Cc1cc(-c2ccn3nc(Nc4cc(C(F)(F)F)n(C)n4)cc3c2)c(O[C@H]2C[C@H]3COC[C@@H](C2)N3)cn1 [Example 379] ?
## Output fulfilled

## Input Exam item: decide whether the reported pIC50 for N#Cc1cc(-c2ccn3nc(NC(=O)C4CC4)cc3c2)c(OCC2CC2)cn1 [Example 584] is at least 7.
## Output fulfilled

## Input API: above_or_equal(metric=pIC50, cutoff=7) for item Cc1cc(-c2ccn3nc(Nc4cnc(C(=O)NCC(C)(C)O)cn4)cc3c2)c(O[C@H]2C[C@H]3COC[C@@H](C2)N3)cn1 [Example 390]
## Output not fulfilled

## Input I'd appreciate it if you could say whether CN1CC[C@@H](COc2cnc(Cl)cc2-c2ccn3nc(NC(=O)C4CC4)cc3c2)C1 [Example 490] has pIC50 at least equal to 7.
## Output fulfilled

## Input Check if pIC50 >= 7 (inclusive). Item: Cc1cc(-c2ccn3nc(Nc4ccc(C(F)(F)F)cn4)cc3c2)c(O[C@H]2C[C@H]3COC[C@@H](C2)N3C)cn1 [Example 411]
## Output fulfilled

## Input Is pIC50 at least 7? Consider Cc1cc(-c2ccn3nc(NC(=O)C4CC4)cc3c2)c(O[C@H]2CC[C@H](O)CC2)cn1 [Example 158]
## Output fulfilled

###

molecular target: SIK2 (Homo sapiens, UniProt Q9H0K1); assay: SIK2 Enzymatic Assay High Version 2 (High ATP); format: biochemical
Would you mind telling me the reported IC50 of each entry?
One number for each entry, in nM.

Answered examples (3):
Cc1cc(-c2cn3cc(Nc4cc(C)nc(C)n4)nc3cn2)c(O[C@H]2C[C@H]3COC[C@@H](C2)N3)cn1 [Example 350]: 40.3
Cn1ccc(N[C@H]2C[C@@H](COc3cnc(C#N)cc3-c3ccn4nc(NC(=O)C5CC5)cc4c3)C2)n1 [Example 177]: 29.3
Cc1cc(-c2ccn3nc(NC(=O)C4CC4)cc3c2)c(OC[C@@H]2CNCCO2)cn1 [Example 143]: 12.6

// for each compound in input: emit IC50
1. N#Cc1cc(-c2ccn3nc(NC(=O)C4CC4)cc3c2)c(OCc2cccnc2)cn1 [Example 47]
2. Cc1cc(-c2ccn3nc(Nc4ccc(C(=O)NCCO)cn4)cc3c2)c(O[C@H]2C[C@H]3COC[C@@H](C2)N3)cn1 [Example 369]
3. N#Cc1cc(-c2ccn3nc(NC(=O)C4CC4)cc3c2)c(OC2CN(CC(F)(F)F)C2)cn1 [Example 590]

## Output
[154, 1.64, 19.5]

###

target: SIK2 (Homo sapiens); assay: SIK2 Enzymatic Assay Version 1 (ADP Glo); type: biochemical; conditions: enzyme 0.6 nM, 160 μM ATP and 140 μM HDAC5tide (each 2× final concentration); 30 minutes pre-incubation, 4 hours; ADPGlo luminescence; read-out: SIK2 ADP Glo IC50 (μM) (Test Example 1)
Decide using IC50 alone. Strictly below 0.003 µM: fulfilled. Equal to or above 0.003 µM: not fulfilled.

CN1CCC(Oc2cnc(C#N)cc2-c2ccn3nc(NC(=O)C4CC4)cc3c2)C1 (single isomer, unassigned) [Example 59]: not fulfilled
N#Cc1cc(-c2ccn3nc(NC(=O)C4CC4)cc3c2)c(OCC2(O)CCC2)cn1: fulfilled
N#Cc1cc(-c2ccn3nc(NC(=O)C4CC4)cc3c2)c(OC2CN(CC(F)(F)F)C2)cn1: fulfilled
CN1C[C@@H]2C[C@H]1C[C@H]2Oc1cnc(C#N)cc1-c1ccn2nc(NC(=O)C3CC3)cc2c1 (single isomer, unassigned): fulfilled
N#Cc1cc(-c2ccn3nc(NC(=O)C4CC4)cc3c2)c(OC[C@H]2C[C@@H](N)C2)cn1: fulfilled
Cc1cc(-c2ccn3nc(NC(=O)C4CC4)cc3c2)c(OC[C@@H]2CCN(C)C2)cn1: not fulfilled

Moving on to another compound below.
## Input Dear reviewer, please state whether "N#Cc1cc(-c2ccn3nc(NC(=O)C4CC4)cc3c2)c(OCc2ccccn2)cn1" has IC50 strictly beneath 0.003 µM.
## Output not fulfilled

###

biological target: UniProtKB Q9H0K1; assay: SIK2 Enzymatic Assay High Version 2 (High ATP); assay type: biochemical
pIC50: −log10 of the molar value.
I'd be grateful if you could share measured pIC50 for these entries.

Some solved cases for reference:
CC#Cc1cc(-c2ccn3nc(NC(=O)C4CC4)cc3c2)c(O[C@H]2C[C@H]3COC[C@@H](C2)N3)cn1 [Example 436]: > 9.07
Cc1cc(-c2ccn3nc(Nc4cc(C(=O)NC(C)C)n(C)n4)cc3c2)c(O[C@H]2C[C@H]3COC[C@@H](C2)N3)cn1 [Example 341]: > 9.07

From here, focus on the item given below.
Just so you know, measured pIC50 for Cc1cc(-c2ccn3nc(Nc4cc(C)nc(C)n4)cc3c2)c(OC[C@@H]2CN(C)C(=O)N2)cn1 [Example 365] came out at > 9.07

###

biological target: SIK2 (Homo sapiens, UniProt Q9H0K1); assay: SIK2 Enzymatic Assay High Version 2 (High ATP); format: biochemical
Kindly supply the reported log10 of IC50 values for the records listed here.
Each number you see is log10 of IC50, and the unit inside the log is nM.

Illustrative cases are given below, each with its answer.
Cc1cc(-c2ccn3nc(Nc4ccc(C(=O)NCC(C)(C)C#N)cn4)cc3c2)c(O[C@H]2C[C@H]3COC[C@@H](C2)N3)cn1: 0.01
Cc1cc(-c2ccn3nc(Nc4cnn(CC(C)(C)O)c4)cc3c2)c(O[C@H]2C[C@H]3COC[C@@H](C2)N3)cn1: 0.06
CC1(C)CNC[C@@H](COc2ccc(C#N)cc2-c2ccn3nc(NC(=O)C4CC4)cc3c2)O1: 1.49
N#Cc1cc(-c2ccn3nc(NC(=O)C4CC4)cc3c2)c(OC[C@H]2CNCCO2)cn1: 2.08
CC#Cc1cc(-c2ccn3nc(Nc4ccn(C)n4)cc3c2)c(O[C@H]2C[C@H]3COC[C@@H](C2)N3)cn1: 1.01
CNC(=O)c1ccnc(Nc2cc3cc(-c4cc(C)ncc4O[C@H]4C[C@H]5COC[C@@H](C4)N5C(C)=O)ccn3n2)c1: 1.89

Provide reported log10 of IC50 for each item, in the same order as listed.
1. Cc1cc(-c2ccn3nc(NC(=O)C4CC4)cc3c2)c(O[C@H]2CN(C)[C@H]2C)cn1 (single isomer, unassigned)
2. CC(=O)N1[C@@H]2COC[C@H]1C[C@@H](Oc1cnc(C)cc1-c1ccn3nc(Nc4cc(C(F)(F)F)ccn4)cc3c1)C2
3. N#Cc1cc(-c2ccn3nc(NC(=O)C4CC4)cc3c2)c(OCC(O)(C(F)(F)F)C(F)(F)F)cn1
4. Cc1cc(-c2ccn3nc(NC(=O)C4CC4)cc3c2)c(OC[C@H]2CCN2C)cn1
5. N#Cc1cc(-c2ccn3nc(NC(=O)C4CC4)cc3c2)c(OC[C@H]2CC[C@H](O)CC2)cn1
6. Cc1cc(-c2ccn3nc(NC(=O)C4CC4)cc3c2)c(OC[C@@H]2CN[C@H](C)CO2)cn1
7. N#Cc1cc(-c2ccn3nc(NC(=O)C4CC4)cc3c2)c(OCC2CCNCC2)cn1
8. Cc1cc(-c2ccn3nc(NC(=O)C4CC4)cc3c2)c(OC[C@H]2NCC2(C)C)cn1

## Output
1.31
0.08
1.58
0.91
1.13
0.67
1.03
1.44

Item: "Cc1cc(-c2ccn3nc(NC(=O)C4CC4)cc3c2)c(O[C@@H]2CC[C@@H](N)C2)cn1" | log10 of IC50: 1.14

Taken from patent US20240158392A1.
